All figures here come from patent US20230192789A1.

- ASSAYED_TARGET: T1, recombinant HDM2 (amino acids 17-125 of SEQ ID NO:103) (human, UniProt Q00987 17-125)
- T1 construct: also called MDM2; not shown: thrombin cleavage site (pET28a vector)
- T1 sequence (Q00987 other isoform, or with tags, fused parts or gaps): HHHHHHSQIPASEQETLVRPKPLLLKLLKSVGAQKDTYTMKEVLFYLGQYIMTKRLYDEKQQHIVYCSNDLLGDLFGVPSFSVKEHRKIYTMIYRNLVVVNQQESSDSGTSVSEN
- MEASUREMENT_NOTES: streptavidin pull-down of biotinylated peptide with recombinant HDM2 and HDMX (1:1 mixture per paragraph 301), western blot
Bridges are numbered along the chain shown (N, C = ends). [ ]: non-standard residue; d: D form. The star is where a group is joined. Biotin = O=C1N[C@H]2[C@H](CS[C@H]2CCCCC(=O)*)N1; R8 = C=CCCCCCC[C@@](C)(N)C(=O)O; S5 = C=CCCC[C@](C)(N)C(=O)O

BINDER	binding result
Biotin-LTF[R8]EYWAQQ[S5]SAA-NH2 (staple 4-11; SMILES CC(C)C[C@H](NC(=O)CCCC[C@@H]1SC[C@@H]2NC(=O)N[C@@H]21)C(=O)N[C@H](C(=O)N[C@@H](Cc1ccccc1)C(=O)N[C@]1(C)CCCCCCC=CCCC[C@@](C)(C(=O)N[C@@H](CO)C(=O)N[C@@H](C)C(=O)N[C@@H](C)C(N)=O)NC(=O)[C@H](CCC(N)=O)NC(=O)[C@H](CCC(N)=O)NC(=O)[C@H](C)NC(=O)[C@H](Cc2c[nH]c3ccccc23)NC(=O)[C@H](Cc2ccc(O)cc2)NC(=O)[C@H](CCC(=O)O)NC1=O)[C@@H](C)O) [ATSP-7041 B26Q]	no binding
Biotin-LTF[R8]EYWAQR[S5]SAA-NH2 (staple 4-11; SMILES CC(C)C[C@H](NC(=O)CCCC[C@@H]1SC[C@@H]2NC(=O)N[C@@H]21)C(=O)N[C@H](C(=O)N[C@@H](Cc1ccccc1)C(=O)N[C@]1(C)CCCCCCC=CCCC[C@@](C)(C(=O)N[C@@H](CO)C(=O)N[C@@H](C)C(=O)N[C@@H](C)C(N)=O)NC(=O)[C@H](CCCNC(=N)N)NC(=O)[C@H](CCC(N)=O)NC(=O)[C@H](C)NC(=O)[C@H](Cc2c[nH]c3ccccc23)NC(=O)[C@H](Cc2ccc(O)cc2)NC(=O)[C@H](CCC(=O)O)NC1=O)[C@@H](C)O) [ATSP-7041 B26R]	no binding
